Experiment: Plasma pharmacokinetics after 2-hr IV infusion
Details: human, plasma, intravenous, 7 mg/m2, Cmax, Mean, Day 15, 7 mg/m^2
endpoint-name: Cmax (ng/mL)
Please give a number only; it is taken to be in ng/mL.

Which Cmax value is on record for CCc1cnn2c(NCc3ccc[n+]([O-])c3)cc(N3CCCC[C@H]3CCO)nc12 ?
157

====

Assay: Plasma pharmacokinetics after 2-hr IV infusion
Conditions: human, plasma, intravenous, 5 mg/m2, T1/2, Mean, Day 15, 5 mg/m^2
endpoint-name: half-life (h)
Please give a number only; it is taken to be in h.

Which half-life value is on record for CCc1cnn2c(NCc3ccc[n+]([O-])c3)cc(N3CCCC[C@H]3CCO)nc12 [Dinaciclib] ?
2.5
